For each record, write down the corresponding pIC50.
- Target: EphrinB2-EphB2 (Homo sapiens)
- Construct: soluble human EphB1-His, EphB2-His, and EphB4-His ectodomains; commercially available human EphrinB1-Fc (EB1), EphrinB2-Fc (EB2), and EphrinB3-Fc (EB3) ectodomain proteins; purchased
- Protocol: Octet tetramerization inhibition, immobilized human EphrinB2 binding to 50 nM soluble human EphB2
- Cond: Relative AUC/IC50, Table A, EphrinB2-EphB2; compound 7: association only
pIC50: −log10 of the molar value.

Below, each entry is followed by its recorded pIC50 result.
>>> result("Cc1ccc2c(CN3CCN(c4ccc(Br)cc4)CC3)ccc(O)c2n1 [Compound 60]")
"< 5.49"
>>> result("OCc1ccc2c(CN3CCOCC3)ccc(O)c2n1 [Compound 12]")
"< 5.49"

I'm curious: which pIC50 was measured for O=[N+]([O-])c1cc(CN2CCOCC2)c2cccnc2c1O [Compound 10] tested on EphrinB2-EphB2 (Homo sapiens)?
< 5.80

* * *

- Target: EphrinB2-EphB2 (Homo sapiens, UniProt P29323)
- Construct: soluble human EphB1-His, EphB2-His, and EphB4-His ectodomains; commercially available human EphrinB1-Fc (EB1), EphrinB2-Fc (EB2), and EphrinB3-Fc (EB3) ectodomain proteins; purchased
- Sequence (P29323 19-543 limits assumed): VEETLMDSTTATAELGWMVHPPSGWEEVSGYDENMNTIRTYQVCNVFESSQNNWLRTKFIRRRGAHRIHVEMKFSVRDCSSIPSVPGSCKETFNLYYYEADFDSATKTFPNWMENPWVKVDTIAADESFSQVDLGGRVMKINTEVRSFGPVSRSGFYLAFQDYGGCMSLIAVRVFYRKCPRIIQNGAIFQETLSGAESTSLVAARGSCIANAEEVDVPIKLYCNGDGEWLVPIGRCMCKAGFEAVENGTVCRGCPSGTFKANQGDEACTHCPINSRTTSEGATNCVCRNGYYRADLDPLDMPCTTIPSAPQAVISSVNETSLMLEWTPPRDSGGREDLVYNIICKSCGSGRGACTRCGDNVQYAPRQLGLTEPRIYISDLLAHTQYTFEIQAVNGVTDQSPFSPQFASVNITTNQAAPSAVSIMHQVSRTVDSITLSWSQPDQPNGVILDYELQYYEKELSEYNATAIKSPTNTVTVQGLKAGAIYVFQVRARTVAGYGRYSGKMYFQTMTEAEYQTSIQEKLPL
- Protocol: Octet tetramerization inhibition, immobilized human EphrinB2 binding to 50 nM soluble human EphB2
- Cond: Relative AUC/IC50, Table A, EphrinB2-EphB2; compound 7: association only
Endpoint Label: IC50 (nM)
Numbers only, in nM.

>>> quantitative_readout("Nc1ccc(N2CCN(Cc3ccc(O)c4ncccc34)CC2)cc1")
1700
>>> quantitative_readout("Oc1ccc(CN2CCN(c3ccc(Br)cn3)CC2)c2cccnc12 [Compound 33]")
2190
>>> quantitative_readout("Oc1ccc(CN2CCN(c3ccc(Br)cn3)CC2)c2cccnc12 [Compound 34]")
1700

# ---- query molecule ----
I'd like to know its IC50. The molecule in question is `O=C(c1ccc(O)c2ncccc12)N1CCOCC1`
1860

* * *

- Target: EphrinB2-EphB2 (Homo sapiens, UniProt P29323)
- Construct: soluble human EphB1-His, EphB2-His, and EphB4-His ectodomains; commercially available human EphrinB1-Fc (EB1), EphrinB2-Fc (EB2), and EphrinB3-Fc (EB3) ectodomain proteins; purchased
- Sequence (P29323 19-543 limits assumed): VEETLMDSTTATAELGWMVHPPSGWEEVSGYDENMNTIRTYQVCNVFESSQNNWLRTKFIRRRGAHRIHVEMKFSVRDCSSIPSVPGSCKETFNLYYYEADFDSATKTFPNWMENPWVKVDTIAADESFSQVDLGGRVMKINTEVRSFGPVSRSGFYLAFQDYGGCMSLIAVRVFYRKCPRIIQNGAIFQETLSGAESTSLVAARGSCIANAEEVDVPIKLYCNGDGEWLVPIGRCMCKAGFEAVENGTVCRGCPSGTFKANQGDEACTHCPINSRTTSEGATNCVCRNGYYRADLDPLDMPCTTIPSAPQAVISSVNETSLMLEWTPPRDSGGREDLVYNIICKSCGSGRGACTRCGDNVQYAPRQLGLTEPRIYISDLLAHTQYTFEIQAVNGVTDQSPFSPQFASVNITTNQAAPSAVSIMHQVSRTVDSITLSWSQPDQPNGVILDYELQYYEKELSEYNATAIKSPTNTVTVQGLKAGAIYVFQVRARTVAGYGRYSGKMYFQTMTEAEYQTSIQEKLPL
- Protocol: Octet tetramerization inhibition, immobilized human EphrinB2 binding to 50 nM soluble human EphB2
- Cond: Absolute Association IC50 (300 sec), Table A, EphrinB2-EphB2
pIC50: −log10 of the molar value.
Endpoint Label: pIC50

>>> result("Oc1c(I)cc(CN2CCN(Cc3ccc(Br)cc3)CC2)c2cccnc12")
6.14
>>> result("Oc1ccc(CN2CCN(c3ccc(Br)cc3)CC2)c2cccnc12")
"< 5.80"
>>> result("Oc1ccc(CN2CCN(c3ccc(I)cc3)CC2)c2cccnc12")
"< 5.80"
>>> result("COc1ccc2[nH]cc(C(=O)N3CCN(c4ccccc4OC)CC3)c2c1")
"< 5.80"
>>> result("Oc1ccc(CN2CCN(c3ccc(Br)cn3)CC2)c2cccnc12 [Compound 34]")
5.55

Would you mind listing pIC50 for each of the following compounds?
1. O=[N+]([O-])c1cc(CN2CCOCC2)c2cccnc2c1O [Compound 9]
2. Nc1ccc(N2CCN(Cc3ccc(O)c4ncccc34)CC2)cc1
3. O=[N+]([O-])c1cc(CN2CCS(=O)(=O)CC2)c2cccnc2c1O [Compound 20]

1: < 5.49; 2: 5.52; 3: < 5.49
